target: TBK1 (Homo sapiens); experiment: TBK Biochemical Assay; settings: read-out: TBK1 IC50
Sequence (Q9UHD2 whole entry, species assumed): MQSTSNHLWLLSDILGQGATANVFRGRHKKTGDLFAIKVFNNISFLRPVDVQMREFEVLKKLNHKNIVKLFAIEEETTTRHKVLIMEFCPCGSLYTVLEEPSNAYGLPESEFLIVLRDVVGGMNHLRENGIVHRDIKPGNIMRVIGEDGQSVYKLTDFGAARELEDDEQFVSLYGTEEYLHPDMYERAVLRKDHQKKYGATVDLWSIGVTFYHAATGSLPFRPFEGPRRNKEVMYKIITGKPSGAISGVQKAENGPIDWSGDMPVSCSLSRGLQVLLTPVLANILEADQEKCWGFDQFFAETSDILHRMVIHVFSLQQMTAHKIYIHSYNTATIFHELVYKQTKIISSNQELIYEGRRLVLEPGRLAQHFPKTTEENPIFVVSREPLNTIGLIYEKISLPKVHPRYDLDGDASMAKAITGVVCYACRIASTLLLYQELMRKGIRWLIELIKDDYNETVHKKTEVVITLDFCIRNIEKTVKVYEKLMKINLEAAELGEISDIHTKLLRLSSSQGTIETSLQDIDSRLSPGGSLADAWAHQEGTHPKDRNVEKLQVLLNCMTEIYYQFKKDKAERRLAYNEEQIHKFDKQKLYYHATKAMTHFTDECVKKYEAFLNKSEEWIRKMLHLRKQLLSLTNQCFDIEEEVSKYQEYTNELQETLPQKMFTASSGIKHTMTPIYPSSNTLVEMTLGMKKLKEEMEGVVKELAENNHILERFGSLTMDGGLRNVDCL
Where a name gives a salt, the structure may show the parent alone.
Assay readout: IC50

Solved entries (count: 2):
[
  {
    "Molecule": "COc1cc(C(=O)N(C)C)ccc1-c1cc2nccc(-c3ccc(NC4CC(C)OC(C)C4)c(C#N)c3)c2o1 (stereo not shown)",
    "Target": "TBK1 (Homo sapiens)",
    "Recorded result": "100 to 1000 nM"
  },
  {
    "Molecule": "CN(C)C(=O)c1ccc(-c2cc3nccc(-c4ccc(N5CC[C@@H](F)C5)c(C#N)c4)c3o2)cc1",
    "Target": "TBK1 (Homo sapiens)",
    "Recorded result": "< 100 nM"
  }
]

Qu. Quick check: IC50 of "COc1cc(C(=O)N2CC(O)C2)ccc1-c1cc2nccc(-c3ccc(OC4CCOCC4)c(C#N)c3)c2o1" ?
Ans. < 100 nM

Qu. Quick check: IC50 of "COc1cc(C(=O)N2CC[C@@H](N(C)C)C2)ncc1-c1cc2nccc(-c3ccc(N4CC[C@@H](F)C4)c(C#N)c3)c2o1" ?
Ans. < 100 nM

Qu. Quick check: IC50 of C[C@@H]1COC[C@@H](C)C1Oc1ccc(-c2ccnc3cc(-c4ccc(C(=O)N(C)C)cc4)oc23)cc1C#N (single isomer, unassigned) [Compound 220, hydrochloride] ?
Ans. 100 to 1000 nM

Qu. Quick check: IC50 of COc1cc(C(=O)NC2CCC(O)C2)ccc1-c1cc2nccc(-c3ccc(OC4CCOCC4)c(C#N)c3)c2o1 (stereo not shown) ?
Ans. < 100 nM

Qu. Quick check: IC50 of "COc1cc(C(=O)N2CCN(C)CC2)ccc1-c1cc2nccc(-c3ccc(N4CC[C@H](F)C4)c(C#N)c3)c2o1" ?
Ans. < 100 nM

Qu. Quick check: IC50 of COc1cc(C(=O)N(C)C)ccc1-c1cc2nccc(-c3ccc(OC4CCN(C)C4)c(C#N)c3)c2o1 (stereo not shown) ?
Ans. < 100 nM

###

The reader will find reported pIC50 values listed item by item below.
target: TBK1 (Homo sapiens); assay: TBK Biochemical Assay; settings: read-out: TBK1 IC50
pIC50: −log10 of the molar value.

Solved entries (count: 2):
[
  {
    "Compound": "COc1cc(C(=O)N(C)CCO)ccc1-c1cc2ncc(C3CC3)c(-c3ccc(OC4CCOCC4)c(C#N)c3)c2o1",
    "Assay readout": "pIC50",
    "Recorded result": "< 5.30"
  },
  {
    "Compound": "COc1cc(C(=O)N2CCN(C)CC2)cnc1-c1cc2nccc(-c3ccc(N4CCC(F)C4)c(C#N)c3)c2o1 (stereo not drawn)",
    "Assay readout": "pIC50",
    "Recorded result": "> 7.00"
  }
]

Qu. Quick check: pIC50 of COc1cc(C(=O)N[C@H]2[C@@H]3C[C@H]2CN(C)C3)ccc1-c1cc2nccc(-c3ccc(OC4CCOCC4)c(C#N)c3)c2o1 (single isomer, unassigned) [Compound 366] ?
Ans. > 7.00

###

biological target: TBK1 (Homo sapiens); assay: TBK Biochemical Assay; conditions: read-out: TBK1 IC50
pIC50: −log10 of the molar value. Where a name gives a salt, the structure may show the parent alone.
The reader will find reported pIC50 values listed item by item below.

Solved entries (count: 8):
[
  {
    "Compound": "CN(C)C(=O)c1ccc(-c2cc3nccc(-c4ccc(OC5CC6(COC6)C5)c(C#N)c4)c3o2)cc1",
    "pIC50": "6.00 to 7.00"
  },
  {
    "Compound": "COc1cc(C(=O)NC2CCOCC2F)ccc1-c1cc2nccc(-c3ccc(NC4CCOCC4)c(C#N)c3)c2o1 (centres unmarked)",
    "pIC50": "> 7.00"
  },
  {
    "Compound": "COc1cc(C(=O)N(C)C)cnc1-c1cc2ncc(OC)c(-c3ccc(OC4CCOCC4)c(C#N)n3)c2o1 [Compound 338, hydrochloride]",
    "pIC50": "6.00 to 7.00"
  },
  {
    "Compound": "COc1cc(C(=O)N2C[C@@H]3C[C@H]2CN3C)ccc1-c1cc2nccc(-c3ccc(NC4CCOCC4)c(C#N)c3)c2o1",
    "pIC50": "> 7.00"
  },
  {
    "Compound": "COc1cc(C(=O)N(C)C)cnc1-c1cc2ncc(C(C)C)c(-c3ccc(OC4CCOCC4)c(C#N)c3)c2o1",
    "pIC50": "< 5.30"
  },
  {
    "Compound": "COc1cc(C(=O)NC2CCOCC2)ccc1-c1cc2nccc(-c3ccc(OC4CCOCC4)c(C#N)c3)c2o1",
    "pIC50": "> 7.00"
  },
  {
    "Compound": "COc1cc(C(=O)NC2CN(C)CCC2O)ccc1-c1cc2nccc(-c3ccc(OC4CCOCC4)c(C#N)c3)c2o1 (centres unmarked)",
    "pIC50": "> 7.00"
  },
  {
    "Compound": "COc1cc(-c2cc3nccc(-c4ccc(NC5CCOCC5)c(C#N)c4)c3o2)ncc1C(=O)N(C)C",
    "pIC50": "6.00 to 7.00"
  }
]

Qu. Quick check: pIC50 of COc1cc(C(=O)NC2CCNC2)ccc1-c1cc2nccc(-c3ccc(NC4CCOCC4)c(C#N)c3)c2o1 (centres unmarked) ?
Ans. > 7.00

Qu. Quick check: pIC50 of "CN(CCO)C(=O)c1ccc(-c2cc3ncc(C4CC4)c(-c4ccc(NC5CCOCC5)c(C#N)c4)c3o2)c(F)c1" ?
Ans. < 5.30

Qu. Quick check: pIC50 of COc1cc(C(=O)N(C)C)ccc1-c1cc2nccc(-c3ccc(NCC4CCOC4)c(C#N)c3)c2o1 (centres unmarked) ?
Ans. > 7.00

Qu. Quick check: pIC50 of COc1cc(C(=O)NC2CN3CCC2CC3)cnc1-c1cc2nccc(-c3ccc(N4CCC(F)C4)c(C#N)c3)c2o1 (centres unmarked) ?
Ans. > 7.00

Qu. Quick check: pIC50 of "COc1cc(C(=O)N(C)CCO)cnc1-c1cc2ncc(F)c(-c3ccc(OC4CCOCC4)c(C#N)c3)c2o1" ?
Ans. > 7.00

Qu. Quick check: pIC50 of "COc1cc(C(=O)N(C)CCS(C)(=O)=O)ccc1-c1cc2nccc(-c3ccc(OC4CCOCC4)c(C#N)c3)c2o1" ?
Ans. > 7.00

###

The reader will find reported IC50 values listed item by item below.
Biological target: IKKε (Homo sapiens, UniProt Q14164)
Sequence (Q14164 1-716): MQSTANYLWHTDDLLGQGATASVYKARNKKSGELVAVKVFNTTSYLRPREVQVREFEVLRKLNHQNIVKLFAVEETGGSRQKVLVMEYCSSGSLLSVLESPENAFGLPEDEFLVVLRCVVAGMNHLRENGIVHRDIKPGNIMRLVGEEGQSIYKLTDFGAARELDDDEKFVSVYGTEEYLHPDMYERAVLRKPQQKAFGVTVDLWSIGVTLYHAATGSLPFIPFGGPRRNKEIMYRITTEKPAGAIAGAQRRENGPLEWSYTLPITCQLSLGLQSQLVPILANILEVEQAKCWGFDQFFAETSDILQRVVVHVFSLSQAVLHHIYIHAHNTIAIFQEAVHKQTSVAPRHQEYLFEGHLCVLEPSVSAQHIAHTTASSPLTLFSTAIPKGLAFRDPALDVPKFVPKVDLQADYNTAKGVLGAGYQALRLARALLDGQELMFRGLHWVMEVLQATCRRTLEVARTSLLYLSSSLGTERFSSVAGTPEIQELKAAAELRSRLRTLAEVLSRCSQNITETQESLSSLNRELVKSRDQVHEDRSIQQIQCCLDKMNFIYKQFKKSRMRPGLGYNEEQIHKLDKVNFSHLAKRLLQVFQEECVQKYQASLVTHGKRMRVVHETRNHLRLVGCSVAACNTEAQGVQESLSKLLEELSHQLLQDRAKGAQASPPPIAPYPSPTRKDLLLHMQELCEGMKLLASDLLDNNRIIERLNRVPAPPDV
Assay: IKKe Biochemical Assay
Details: read-out: IKKε IC50

[
  {
    "Compound": "COc1cc(C(=O)N2CC3CN(C)CC3C2)ncc1-c1cc2nccc(-c3ccc(N4CC[C@@H](F)C4)c(C#N)c3)c2o1 (stereo partly shown) [Compound 453]",
    "IC50": "< 0.1 µM"
  },
  {
    "Compound": "COc1cc(C(=O)N2CC3CN(C)CC3C2)ccc1-c1cc2nccc(-c3ccc(N4CC[C@@H](F)C4)c(C#N)c3)c2o1 (stereo partly shown) [Compound 501]",
    "IC50": "< 0.1 µM"
  },
  {
    "Compound": "COc1cc(C(=O)N2CC3CC2CO3)ccc1-c1cc2nccc(-c3ccc(NC4CCOCC4)c(C#N)c3)c2o1 (stereo not shown) [Compound 85]",
    "IC50": "< 0.1 µM"
  },
  {
    "Compound": "COc1cc(C(=O)N(C)C)ccc1-c1cc2nccc(-c3ccc(O[C@@H]4[C@H](C)COC[C@@H]4C)c(C#N)c3)c2o1 [Compound 233]",
    "IC50": "< 0.1 µM"
  }
]

Qu. Quick check: IC50 of COc1cc(C(=O)NCC2CCCCC2(F)F)ccc1-c1cc2nccc(-c3ccc(OC4CCOCC4)c(C#N)c3)c2o1 (stereo not shown) [Compound 151] ?
Ans. < 0.1 µM

Qu. Quick check: IC50 of COc1cc(C(=O)NC2C3COCC32)cnc1-c1cc2nccc(-c3ccc(N4CC[C@H](F)C4)c(C#N)c3)c2o1 (stereo partly shown) [Compound 467] ?
Ans. < 0.1 µM

Qu. Quick check: IC50 of COc1cc(C(=O)NN)ccc1-c1cc2nccc(-c3ccc(OC4CCOCC4)c(C#N)c3)c2o1 [Compound 110] ?
Ans. < 0.1 µM
